molecular target: succinate dehydrogenase/complex II (SDH) (Rattus norvegicus, UniProt P21913+Q641Z9+Q6PCT8+Q920L2); construct: freshly isolated muscle mitochondria were assayed; from tissue; host or cells: rat skeletal muscle mitochondria (Wistar, Harlan Laboratories); assay: High-throughput screen: ROS production from succinate dehydrogenase/complex II (SDH); assay type: biochemical; conditions: Table 7; percent change in ROS from DMSO controls
Sequence (Q920L2 35-656): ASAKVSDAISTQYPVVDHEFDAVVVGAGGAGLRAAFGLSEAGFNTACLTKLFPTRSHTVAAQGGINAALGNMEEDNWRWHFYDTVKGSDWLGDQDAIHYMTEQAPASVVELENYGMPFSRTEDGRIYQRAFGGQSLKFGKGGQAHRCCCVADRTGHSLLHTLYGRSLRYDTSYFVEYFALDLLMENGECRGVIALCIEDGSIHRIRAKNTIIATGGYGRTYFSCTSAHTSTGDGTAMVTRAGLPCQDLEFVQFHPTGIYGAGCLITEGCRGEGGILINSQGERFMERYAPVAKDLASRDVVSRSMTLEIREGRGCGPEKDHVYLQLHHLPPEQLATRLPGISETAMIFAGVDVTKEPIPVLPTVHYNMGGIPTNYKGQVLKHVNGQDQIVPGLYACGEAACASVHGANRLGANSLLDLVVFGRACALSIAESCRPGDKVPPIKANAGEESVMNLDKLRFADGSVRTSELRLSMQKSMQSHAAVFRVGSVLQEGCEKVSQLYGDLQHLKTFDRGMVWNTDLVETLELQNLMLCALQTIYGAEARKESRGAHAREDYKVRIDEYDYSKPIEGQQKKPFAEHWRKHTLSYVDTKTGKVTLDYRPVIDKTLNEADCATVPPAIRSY
Sequence (P21913 31-282): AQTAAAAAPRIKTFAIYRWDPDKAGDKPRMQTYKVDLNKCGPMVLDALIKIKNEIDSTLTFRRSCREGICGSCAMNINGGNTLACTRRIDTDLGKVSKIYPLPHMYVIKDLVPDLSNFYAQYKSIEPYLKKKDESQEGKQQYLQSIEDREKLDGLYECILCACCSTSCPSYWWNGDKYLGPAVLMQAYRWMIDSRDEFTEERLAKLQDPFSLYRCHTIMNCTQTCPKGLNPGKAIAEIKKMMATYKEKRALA
Sequence (Q641Z9 30-169 limits assumed): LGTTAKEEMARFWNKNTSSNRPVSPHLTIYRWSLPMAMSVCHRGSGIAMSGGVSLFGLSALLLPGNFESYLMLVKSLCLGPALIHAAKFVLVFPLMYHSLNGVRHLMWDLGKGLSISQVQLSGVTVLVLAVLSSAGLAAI
Sequence (Q6PCT8 57-159): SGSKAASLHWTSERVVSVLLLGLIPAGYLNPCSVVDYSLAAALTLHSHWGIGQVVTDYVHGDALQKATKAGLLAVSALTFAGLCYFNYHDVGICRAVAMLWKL
ASSAY_READOUT: SDH
Provide a numeric answer; units are not to be included.

// solved cases for SDH follow
[[record]]
molecule_smiles = "O=C(Nc1ccccc1[N+](=O)[O-])c1cccc(S(=O)(=O)Nc2ccccc2)c1"
meas_value = "−26.9"

[[record]]
molecule_smiles = "O=[N+]([O-])c1ccc(Oc2ccc(S(=O)(=O)Nc3ccc(F)cc3)cc2)cc1"
meas_value = 0.7

[[record]]
molecule_smiles = "O=[N+]([O-])c1ccc(Oc2ccc(S(=O)(=O)Nc3ccc4c(c3)OCCO4)cc2)cc1"
meas_value = 3.6


Consider the additional molecule presented here.
Incoming: I would be grateful if you could share the reported SDH for O=[N+]([O-])c1ccc(Oc2ccc(S(=O)(=O)NC3CCCCC3)cc2)cc1 .
Outgoing: 0.8
